measurement-notes: Plasma concentration in rapid rat model plasma at 10 mg/kg, po after 6 hrs
Format: ADME, organism-based
Parameters: dose 10 mg/kg, route oral
We begin with a simple list: items and their reported concentration at 6 h.
Output spec: scalar in nM, unitless text.

• CCN1C(=O)c2nc(-c3ccc(-c4ccccc4)cc3)n(Cc3cc(F)cc(F)c3)c2N2C[C@@H](C(C)C)N=C12 = 93
• CCN1C(=O)c2nc(-c3ccc(-c4ccc(F)cc4)nc3)n(Cc3ccc(F)c(F)c3)c2N2CC(C)(C)N=C12 = 897
• CCN1C(=O)c2nc(-c3ccc(-c4ccccc4)cc3)n(Cc3ccc(F)c(F)c3)c2N2CC(C)(C)N=C12 = 1370
• CCN1C(=O)c2nc(-c3ccc(-c4ccccc4F)nc3)n(Cc3ccc(F)c(F)c3)c2N2CC(C)(C)N=C12 = 537
• CCN1C(=O)c2nc(-c3ccc(-c4ccccc4OC)nc3)n(Cc3ccc(F)c(F)c3)c2N2CC(C)(C)N=C12 = 224

Read the next record carefully.
Problem: Could you share which concentration at 6 h value was measured for CCN1C(=O)c2nc(-c3ccc(-c4ccccc4)cc3)n(Cc3ccc(F)c(F)c3)c2N2C[C@@H](C(C)C)N=C12 ?
Result: 392
